# protocol-description: chemical genetic growth profiling, strain panel (AID 1159580);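 note: tested at 20 µM; growth read once vehicle control cultures reached saturation at 30 °C; 1 = growth at the plate median or of vehicle wells; lower values mean less growth of the strain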
# condition-set: S. cerevisiae deletion strains, growth OD, locus YMR231W, strain pep5, stronger effect = lower value
Among all 5,500 compounds or so, about 2,000 (36%) were called active. Another 18% or so got no clear call; they are omitted. This is one part of the list.
compounds and their reported normalized growth
Returns: the value as a bare number; no unit string appended.

// worked examples, normalized growth included
- O=C(O)C(O)C(O)C(=O)O (stereo unspecified): 1
- COc1ccc2c(c1)OCC(Cc1ccc(OC)c(OC(C)=O)c1)C2=O (stereo unspecified): 0.946
- COc1ccc2c(c1)OCC(Cc1ccc(O)c(OC)c1)C2=O (stereo unspecified): 0.99

# input Return reported normalized growth. Input compound: N[C@@H](C(=O)O)[C@@H](O)[C@H](O)[C@H](O)CO
# output 1

# input Output normalized growth of NC(C(=O)O)C(O)C(=O)O (stereo unspecified)
# output 0.993

# input Please indicate normalized growth recorded for COc1ccc2c(c1)OCC(Cc1ccc(OC)c(O)c1)C2=O (stereo unspecified)
# output 0.967

---

# protocol-description: chemical genetic growth profiling, strain panel (AID 1159580);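 note: tested at 20 µM; growth read once vehicle control cultures reached saturation at 30 °C; 1 = growth at the plate median or of vehicle wells; lower values mean less growth of the strain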
# condition-set: S. cerevisiae deletion strains, growth OD, locus YER155C, strain BEM2, stronger effect = lower value
Hit rate of the full screen: of about 5,500 compounds, about 2,000 (36%) were called active. About 18% were inconclusive and are not listed. This is one part of the list.
Label MET when normalized growth is strictly below 1; otherwise label NOT MET.

Worked examples, 5 molecules total:
- Clc1ccc(COC(Cn2ccnc2)c2ccc(Cl)cc2Cl)c(Cl)c1 (stereo unspecified): MET
- COc1c(C)c2c(c(O)c1C/C=C(\C)CCC(=O)O)C(=O)OC2: MET
- NC1(C(=O)O)CCC1: NOT MET
- Clc1ccc(CSC(Cn2ccnc2)c2ccc(Cl)cc2Cl)cc1 (stereo unspecified): MET
- Cc1cc(/C=C/c2ccc3cc(N(C)C)ccc3[n+]2C)c(C)n1-c1ccccc1: NOT MET

Please look at the following molecule next.
# input Is normalized growth of NCCCCC(=O)O strictly below 1?
# output NOT MET

---

# protocol-description: chemical genetic growth profiling, strain panel (AID 1159580);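 note: tested at 20 µM; growth read once vehicle control cultures reached saturation at 30 °C; 1 = growth at the plate median or of vehicle wells; lower values mean less growth of the strain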
# condition-set: S. cerevisiae deletion strains, growth OD, locus YLR027C, strain aat2, stronger effect = lower value
Hit rate of the full screen: of about 5,500 compounds, about 2,000 (36%) were called active. Not shown: some 18% with an inconclusive outcome. The list shows a part of the results.
normalized growth by entry:
Please give the numeric answer without any surrounding text.

Previously resolved entries follow.
• C[C@@H]1CC2C3CCC4=CC(=O)C=C[C@]4(C)[C@@]3(F)[C@@H](O)C[C@]2(C)[C@@]1(O)C(=O)CO (stereo not given in full) = 0.976
• COc1ccc2nc(S(=O)Cc3ncc(C)c(OC)c3C)[nH]c2c1 (stereo not given) = 0.948
• COC(=O)[C@@H]1OC(=O)C2OC23[C@@]1(C)CCC1[C@]2(C)C(C[C@@H](O)[C@]13C)C(C)(C)[C@H](OC(C)=O)C[C@@H]2OC(C)=O (stereo not given in full) = 1.01
• CC12CCCCC1(Br)[N+](=O)N2[O-] (stereo not given) = 0.954

# input Please report normalized growth for the following molecule: O=C(O)CCC1NCC2CC1CN1CCCCC21 (stereo not given)
# output 0.992
